Give HORVW control rating (0-9) for every item shown.
- Test system: Hordeum vulgare
- ASSAY_NOTES: Herbicidal activity, postemergence test
- Assay type: in vivo
- MEASUREMENT_SETUP: post; sprayed onto seedling plants, 800 g of active material per hectare; evaluated 2 weeks after treatment

Input: // lookup HORVW control rating (0-9) for C[C@H](NC(=O)c1nnc(-c2ccccc2)o1)c1ccccc1
Output: 5 (definite injury)

For each of the compounds below, note its HORVW control rating (0-9).
1. C[C@H](NC(=O)c1nnc(-c2ccc(Cl)cc2Cl)o1)c1ccccc1
2. C[C@H](NC(=O)c1nnc(-c2cc(Cl)cc(Cl)c2)o1)c1ccccc1
3. C[C@H](NC(=O)c1nnc(N(C)C)o1)c1ccccc1
4. C[C@H](NC(=O)c1nnc(-c2ccc(C(F)(F)F)cc2)o1)c1ccccc1
5. O=C(NCc1cccs1)c1nnc(-c2ccccc2F)o1
6. C[C@H](NC(=O)c1nnc(-c2ccc(F)cc2F)o1)c1ccccc1

Output:
["0 (no effect)", "0 (no effect)", "2 (slight effect)", "4 (injury)", "0 (no effect)", "3 (moderate effect)"]

For each of the compounds below, note its HORVW control rating (0-9).
1. C[C@H](NC(=O)c1nnc(-c2ccc(C(C)(C)C)cc2)o1)c1ccccc1
2. O=C(NCc1cccs1)c1nnc(-c2ccc(F)cc2)o1
3. C[C@H](NC(=O)c1nnc(-c2ccc(F)cc2)o1)c1ccccc1
4. CC(NC(=O)c1nnc(-c2ccccc2)o1)c1cccs1 (racemic)
5. C[C@H](NC(=O)c1nnc(-c2c(F)cccc2F)o1)c1ccccc1
6. C[C@H](NC(=O)c1nnc(-c2c(Cl)cccc2Cl)o1)c1ccccc1

Output:
["4 (injury)", "0 (no effect)", "5 (definite injury)", "5 (definite injury)", "2 (slight effect)", "0 (no effect)"]

----------
- System: Alopecurus myosuroides
- ASSAY_NOTES: Herbicidal activity, preemergence test
- Type: in vivo
- MEASUREMENT_SETUP: pre; sprayed onto soil, 800 g of active material per hectare; evaluated 3 weeks after treatment
ATTRIBUTE_MEASURED: ALOMY control rating (0-9)

# annotated cases, reported ALOMY control rating (0-9) shown
Input: Under Alopecurus myosuroides: ALOMY control rating (0-9) value of C[C@H](NC(=O)c1nnc(-c2ccccc2)o1)c1ccccc1 [Example 4] ?
Output: 0 (no effect)

Input: Then O=C(NCc1cccs1)c1nnc(-c2ccccc2F)o1 [Example 11] ?
Output: 0 (no effect)

Input: Then CC(NC(=O)c1nnc(C(C)(C)C)o1)c1cccs1 (racemic) [Example 5] ?
Output: 4 (injury)

Input: Then C[C@H](NC(=O)c1nnc(-c2ccc(C(C)(C)C)cc2)o1)c1ccccc1 [Example 16] ?
Output: 0 (no effect)

Input: Then C[C@H](NC(=O)c1nnc(-c2ccccc2Cl)o1)c1ccccc1 [Example 21] ?
Output: 0 (no effect)

For each of the molecules below, note its ALOMY control rating (0-9).
1. C[C@H](NC(=O)c1nnc(-c2ccc(Cl)c(Cl)c2)o1)c1ccccc1 [Example 27]
2. C[C@H](NC(=O)c1nnc(-c2ccccc2F)o1)c1ccccc1 [Example 10]
3. C[C@H](NC(=O)c1nnc(-c2ccc(Cl)cc2)o1)c1ccccc1 [Example 12]
4. O=C(NCc1ccccc1)c1nnc(-c2ccc(F)cc2)o1 [Example 9]

Output:
1: 0 (no effect); 2: 1 (trace effect); 3: 1 (trace effect); 4: 0 (no effect)
